Recorded values, source ChEMBL document CHEMBL4052823.

# System: Enterococcus faecium
# TEST_PROTOCOL: Antibacterial activity against glycopeptide-resistant Enterococcus faecium Efm-HS-0649 vanA after 24 hrs by broth microdilution method
# Assay type: functional
# RECORDED_CONDITIONS: Efm-HS-0649, 24 h
For each record, write down the corresponding MIC.
Numbers only, in µg/mL.

COMPOUND	MIC (µg/mL)
CN[C@H](CC(C)C)C(=O)N[C@H]1C(=O)N[C@@H](CC(N)=O)C(=O)N[C@H]2C(=O)N[C@H]3C(=O)N[C@H](C(=O)N[C@H](C(=O)O)c4cc(O)c(CNCCO[C@@H]5O[C@H](CO)[C@H](O)[C@H](O)[C@H]5O)c(O)c4-c4cc3ccc4O)[C@H](O)c3ccc(c(Cl)c3)Oc3cc2cc(c3O[C@@H]2O[C@H](CO)[C@@H](O)[C@H](O)[C@H]2O[C@H]2C[C@](C)(NCc3ccc(-c4ccc(Cl)cc4)cc3)[C@H](O)[C@H](C)O2)Oc2ccc(cc2Cl)[C@H]1O	4

Batch request: MIC for each of the following compounds.
1. CCCCCCCCCCNCCN[C@@]1(C)C[C@H](O[C@H]2[C@H](Oc3c4cc5cc3Oc3ccc(cc3Cl)[C@@H](O)[C@@H](NC(=O)[C@@H](CC(C)C)NC)C(=O)N[C@@H](CC(N)=O)C(=O)N[C@H]5C(=O)N[C@H]3C(=O)N[C@H](C(=O)N[C@H](C(=O)O)c5cc(O)c(CNCCCNC(=O)[C@H](O)[C@@H](O)[C@H](O)[C@H](O)CO)c(O)c5-c5cc3ccc5O)[C@H](O)c3ccc(c(Cl)c3)O4)O[C@H](CO)[C@@H](O)[C@@H]2O)O[C@@H](C)[C@H]1O
2. CCCCCCc1ccc(CN[C@@]2(C)C[C@H](O[C@H]3[C@H](Oc4c5cc6cc4Oc4ccc(cc4Cl)[C@@H](O)[C@@H](NC(=O)[C@@H](CC(C)C)NC)C(=O)N[C@@H](CC(N)=O)C(=O)N[C@H]6C(=O)N[C@H]4C(=O)N[C@H](C(=O)N[C@H](C(=O)O)c6cc(O)c(CN[C@H]7C(O)O[C@H](CO)[C@H](O)[C@@H]7O)c(O)c6-c6cc4ccc6O)[C@H](O)c4ccc(c(Cl)c4)O5)O[C@H](CO)[C@@H](O)[C@@H]3O)O[C@@H](C)[C@H]2O)cc1 (stereo partly specified)
3. CCCCCCCCCCN[C@@]1(C)C[C@H](O[C@H]2[C@H](Oc3c4cc5cc3Oc3ccc(cc3Cl)[C@@H](O)[C@@H](NC(=O)[C@@H](CC(C)C)NC)C(=O)N[C@@H](CC(N)=O)C(=O)N[C@H]5C(=O)N[C@H]3C(=O)N[C@H](C(=O)N[C@H](C(=O)O)c5cc(O)c(CN[C@H]6C(O)O[C@H](CO)[C@H](O)[C@@H]6O)c(O)c5-c5cc3ccc5O)[C@H](O)c3ccc(c(Cl)c3)O4)O[C@H](CO)[C@@H](O)[C@@H]2O)O[C@@H](C)[C@H]1O (stereo partly specified)

[out]
1. 2
2. 8
3. 8

Each compound below has a recorded value; state its MIC.
1. CN[C@H](CC(C)C)C(=O)N[C@H]1C(=O)N[C@@H](CC(N)=O)C(=O)N[C@H]2C(=O)N[C@H]3C(=O)N[C@H](C(=O)N[C@H](C(=O)NCCCN(C)C)c4cc(O)c(CNCCO[C@H]5O[C@H](CO)[C@@H](O)[C@H](O)[C@@H]5O)c(O)c4-c4cc3ccc4O)[C@H](O)c3ccc(c(Cl)c3)Oc3cc2cc(c3O[C@@H]2O[C@H](CO)[C@@H](O)[C@H](O)[C@H]2O[C@H]2C[C@](C)(NCc3ccc(-c4ccc(Cl)cc4)cc3)[C@H](O)[C@H](C)O2)Oc2ccc(cc2Cl)[C@H]1O
2. CN[C@H](CC(C)C)C(=O)N[C@H]1C(=O)N[C@@H](CC(N)=O)C(=O)N[C@H]2C(=O)N[C@H]3C(=O)N[C@H](C(=O)N[C@H](C(=O)O)c4cc(O)c(CNCCO)c(O)c4-c4cc3ccc4O)[C@H](O)c3ccc(c(Cl)c3)Oc3cc2cc(c3O[C@@H]2O[C@H](CO)[C@@H](O)[C@H](O)[C@H]2O[C@H]2C[C@](C)(NCc3ccc(-c4ccc(Cl)cc4)cc3)[C@H](O)[C@H](C)O2)Oc2ccc(cc2Cl)[C@H]1O

[out]
0.5
2
